# Tested system: T1, Recombinant human insulin receptor (B form) ECD (R&D Systems) (human, UniProt P06213 28-956, limits assumed)
# T1 construct: extracellular domain; also called INSR-ECD; h-INSR
# Assay: SPR (Biacore 2000), INSR-ECD immobilised, purified Fab injected, 1:1 fit [cont'd]
Measured attribute: kon (M⁻¹ s⁻¹)
Quick reminder: number only, in M⁻¹ s⁻¹, skip the unit.

Sample records with kon:
RHF.15.05896.075 (Fab, V domains shown, Untagged Fab) VH: EVQLVETGGGVVQPGRSLRLSCAASGFKFSSYAMHWVRQAPGKGLEWVAVISYSGSNKYYADSVKGRFTISRDNSKNTLYLQMNSLRAEDTAVYYCARHEWGFGYDYWGQGTTVTVSS VL: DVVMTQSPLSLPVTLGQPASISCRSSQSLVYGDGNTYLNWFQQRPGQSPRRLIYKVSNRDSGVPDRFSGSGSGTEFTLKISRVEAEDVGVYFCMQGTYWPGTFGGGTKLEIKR :: 320000
RHF.15.05896.044 (Fab, V domains shown, Untagged Fab) VH: EVQLVETGGGVVQPGRSLRLSCAASGFKFSSYAMHWVRQAPGKGLEWVAVISNSGSNKYYADSVKGRFTISRDNSKNTLYLQMNSLRAEDTAVYYCARHEWGFGFDKWGQGTTVTVSS VL: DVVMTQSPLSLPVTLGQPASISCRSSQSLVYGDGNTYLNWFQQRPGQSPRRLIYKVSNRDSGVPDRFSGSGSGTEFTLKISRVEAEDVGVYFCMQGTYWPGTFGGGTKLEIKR :: 130000

Alright, here's another binder for you.
May I ask what kon has been recorded for RHF.15.05896.056 (Fab, V domains shown, Untagged Fab) VH: EVQLVETGGGVVQPGRSLRLSCAASGFKFSSYAMHWVRQAPGKGLEWVAVISYGGSNKYYADSVKGRFTISRDNSKNTLYLQMNSLRAEDTAVYYCARHEWGFGFDEWGQGTTVTVSS VL: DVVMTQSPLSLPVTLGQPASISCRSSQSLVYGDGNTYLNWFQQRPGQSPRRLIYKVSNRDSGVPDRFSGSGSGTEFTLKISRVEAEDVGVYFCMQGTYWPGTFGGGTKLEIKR ?
120000
